Where these numbers come from: PubChem BioAssay AID463173

Test system: DeltatarO mutant
test_summary: S. aureus survival, RN4220 and DeltatarO strains – OD600, teichoic acid synthesis inhibitors, primary screen (AID 463173)
experimental_context: S. aureus RN4220 wild type/DeltatarO growth, OD600, 18 h, screened at 18.75 µg/mL (by protocol)
The campaign covered roughly 52,000 compounds. About 4,300 (8.3%) were called active. Cut-off read from the data, not from the text of the source: active = survival mostly below about 52% (no sharp cut-off); inactive = mostly above about 56%. Shown is part of a subset that was picked to be rich in actives.
Outcomes: active, inactive

{"columns": ["compound", "group_label"],
 "data": [
  ["COc1ccc(C(=O)CN2CCN(S(=O)(=O)c3ccc(C(C)C)cc3)CC2)cc1", "inactive"],
  ["Cc1ccc(-c2nc3ccccn3c2Nc2ccc3c(c2)OCCO3)s1", "inactive"],
  ["Cc1ccccc1Nc1c(-c2c[nH]c3ccccc23)nc2ccccn12", "inactive"],
  ["CC(C)CNCC(=O)N(C1CCCCC1)C1CCCCC1", "inactive"],
  ["COc1cccc(CNC(=O)Cn2c(=O)n3nc(-c4cccc(F)c4)nc3c3ccccc32)c1", "inactive"],
  ["O=C(Nc1cc(C(F)(F)F)ccc1Cl)c1noc2c1CCCCC2", "inactive"],
  ["CCC1SC(=S)N(CC(=O)O)C1=O (configuration not stated)", "inactive"],
  ["CCCCC(CC)CNC(=O)CN(C)S(=O)(=O)c1ccc2c(c1)c(=O)n(C)c(=O)n2C (configuration not stated)", "inactive"],
  ["Cc1ccc(Nc2c(-c3ccc(C)s3)nc3ccccn23)cc1", "active"],
  ["CCn1c(=O)c2cc(C(=O)N3CCN(c4cccc(OC)c4)CC3)sc2c2ccccc21", "active"],
  ["CCCCOc1ccc(C(=O)N2CCN(CCc3ccccn3)CC2)cc1", "inactive"],
  ["CCCSCCCNC(=O)CN1C(=O)CCn2nc(-c3cn(C)c4ccccc34)cc21", "inactive"],
  ["Cc1ccc(-c2nc3ccccn3c2Nc2ccccc2C)s1", "active"],
  ["Cc1ccc(NC(=O)Cn2c(=O)n(Cc3nc(-c4ccccc4)no3)c(=O)c3cc4c(cc32)OCO4)c(C)c1", "inactive"],
  ["Cc1ccccc1Nc1c(-c2ccco2)nc2c(C)cccn12", "active"],
  ["Cc1ccc(-c2nc3c4ccccc4n(Cc4cccc(Cl)c4)c(=O)n3n2)cc1", "inactive"],
  ["Cc1c(CCNC(=O)c2ccc(C(C)(C)C)cc2)sc2nc(-c3ccc(F)cc3)nn12", "inactive"],
  ["Fc1ccc(Nc2c(-c3ccco3)nc3ccccn23)cc1", "inactive"],
  ["Cc1ccc2[nH]c(C)cc(=S)c2c1", "active"],
  ["O=c1n(Cc2cccc(C(F)(F)F)c2)c2ccccc2c2nc(-c3ccccc3)nn12", "inactive"],
  ["Cc1ccc(-c2nc3ccc(Cl)cn3c2Nc2ccccc2C)s1", "inactive"],
  ["CCOc1ccc(CNc2cc(C)nc3nc(-c4cccc(C)c4)nn23)cc1OC", "inactive"]
]}

----------
System: DeltatarO mutant
test_summary: S. aureus survival, RN4220 and DeltatarO strains – OD600, teichoic acid synthesis inhibitors, primary screen (AID 463173)
experimental_context: S. aureus RN4220 wild type/DeltatarO growth, OD600, 18 h, screened at 18.75 µg/mL (by protocol)
Among all 52,000 compounds or so, about 4,300 (8.3%) were called active. No stated cut-off is given here; in the data, active means survival mostly below about 52% (no sharp cut-off); inactive means mostly above about 56%. This excerpt belongs to a sample that is enriched for actives.
Possible outcomes: label 1 = active, label 0 = inactive

{"columns": ["compound", "group_label"],
 "data": [
  ["Cc1ccc(C)c(N2CCN(c3nc4ccc(C)cc4nc3-n3nc(C)cc3C)CC2)c1", "label 0"],
  ["Cc1cc(C)c(C#N)c(N2CCN(c3cccc(C)c3C)CC2)n1", "label 0"],
  ["Cc1cc(C)n(-c2nc3cc(Cl)ccc3nc2Nc2ccc(C)c(F)c2)n1", "label 0"],
  ["COC(=O)c1ccc(NC(=O)c2cc3cc4ccc(OC)c(Cl)c4nc3s2)cc1", "label 0"],
  ["Cc1ccc2nc(N3CCN(c4cccc(Cl)c4)CC3)c(-n3nc(C)cc3C)nc2c1", "label 1"],
  ["CN(C(=O)C(=O)Nc1ccc2nc3n(c(=O)c2c1)CCCCC3)c1cccc(C(F)(F)F)c1", "label 0"],
  ["Cc1cc(C)n(-c2nc3cc(Cl)ccc3nc2N2CCN(c3ccccc3F)CC2)n1", "label 0"],
  ["Cc1ccc(NC(=O)Cn2c(=O)n(CCCCC(=O)NCc3ccccc3Cl)c(=O)c3ccccc32)cc1", "label 0"],
  ["Oc1ccc(N=Cc2ccccc2O)cc1", "label 0"],
  ["COc1ccccc1N1CCN(c2nc3ccc(C)cc3nc2-n2nc(C)cc2C)CC1", "label 1"],
  ["Cc1ccc2c(c1)c(=O)c1ccccc1n2CCCC(=O)Nc1ccc(Cl)c(Cl)c1", "label 1"],
  ["CCOC(=O)c1c(NC(C)=O)c2c3c(sc2n1Cc1cc(C)ccc1C)CCCC3", "label 0"],
  ["CCN(C(=O)Cn1c(=O)n(CCCS(=O)(=O)C2CCCCC2)c(=O)c2ccccc21)c1cccc(C)c1", "label 0"],
  ["CC(=O)N1CCCc2cc(S(=O)(=O)N3CCCC(C(=O)Nc4cc(Cl)ccc4C)C3)ccc21 (stereo unspecified)", "label 0"],
  ["CNCC(O)COc1ccccc1 (stereo unspecified)", "label 0"],
  ["Cc1cc(C)n(-c2nc3ccccc3nc2N2CCN(c3cccc(C)c3C)CC2)n1", "label 1"],
  ["Cc1ccc2nc(N3CCN(c4cccc(Cl)c4)CC3)c3nnnn3c2c1", "label 0"],
  ["Cc1cc(C)n(CCc2nc3c4ccccc4nc(N4CCN(c5cccc(C)c5C)CC4)n3n2)n1", "label 0"],
  ["O=C1/C(=C/c2ccccc2O)CC/C1=C\\c1ccccc1O", "label 1"],
  ["COc1ccc(NC(=O)Cn2c(=O)n(CCCC(=O)NCCc3ccc(C)cc3)c(=O)c3ccccc32)cc1Cl", "label 0"],
  ["COc1ccccc1N1CCN(c2nc3ccc(C)cc3n3nnnc23)CC1", "label 0"]
]}

----------
System: DeltatarO mutant
test_summary: S. aureus survival, RN4220 and DeltatarO strains – OD600, teichoic acid synthesis inhibitors, primary screen (AID 463173)
experimental_context: S. aureus RN4220 wild type/DeltatarO growth, OD600, 18 h, stronger effect = lower value, screened at 18.75 µg/mL (by protocol)
Screen size: about 52,000 compounds; about 4,300 (8.3%) were called active. The sample as a whole holds a higher share of actives than the screen did.
Here the recorded survival is given for each entry.
measured_attribute: survival (%)

{"columns": ["compound", "measured_attribute", "test_value"],
 "data": [
  ["CN(C)S(=O)(=O)c1ccc(S(=O)(=O)N2CCN(C=O)CC2)cc1", "survival", 105],
  ["Cc1c(C(=O)N(Cc2ccc(N(C)C)cc2)Cc2ccco2)oc2cc(Br)ccc12", "survival", 68],
  ["CCOc1ccc(CCNC(=O)Cn2ccc3cc(S(=O)(=O)N4CCCCCC4)ccc32)cc1", "survival", 126],
  ["CSc1cccc(NC(=O)N2CCN(S(=O)(=O)c3ccc4c(ccn4C)c3)CC2)c1", "survival", 58],
  ["O=C(Cn1cc(C(=O)C(F)(F)F)c2ccccc21)N1CCCCCC1", "survival", 56],
  ["CCc1cccc(-n2c(C)nc3c(cnn3-c3ccc(C)c(C)c3)c2=O)c1", "survival", -1],
  ["CCCCCN1N=C(C)CC1=O", "survival", 39],
  ["Cc1ccc(CN(Cc2ccco2)C(=O)c2oc3c(C)c(C)ccc3c2C)cc1", "survival", 50],
  ["CC(CNC(=O)C1CCN(Cc2cc3ccccc3n2Cc2ccccc2)CC1)c1ccccc1 (configuration not stated)", "survival", 47],
  ["CCCNC(=O)C1CCN(Cc2cc3ccccc3n2Cc2ccccc2)CC1", "survival", 87],
  ["Cc1nc2c(cnn2-c2ccccc2)c(=O)n1-c1ccccc1", "survival", 73],
  ["COc1ccc(CNC(=O)C2CCN(S(=O)(=O)c3ccc(F)cc3)CC2)cc1", "survival", 71],
  ["CCOC(=O)c1ccc(-n2c(C)nc3c(cnn3-c3ccc(Cl)cc3)c2=O)cc1", "survival", 67],
  ["O=C(NCc1ccc(Cl)cc1)C1CCCN(c2nc3ccccc3n3cccc23)C1 (configuration not stated)", "survival", 82],
  ["CCOC(=O)c1sc(N2N=C(C)CC2=O)nc1C", "survival", 76],
  ["O=C(NCc1ccccc1Cl)C1CCCN(c2nc3ccccc3n3cccc23)C1 (configuration not stated)", "survival", 46],
  ["COc1ccc(C(=O)Nc2ccc(-c3nnc4n3CCCCC4)cc2)cc1OC", "survival", 57],
  ["COc1ccc(C(=O)Nc2ccc(-c3nnc4n3CCCCC4)cc2)cc1", "survival", 0],
  ["Nc1ccc2nc(CN3CCOCC3)[nH]c2c1", "survival", 88],
  ["Cc1ccc(CN(Cc2ccco2)C(=O)c2oc3cc(Br)ccc3c2C)cc1", "survival", 43],
  ["O=C(NCCc1ccccc1)c1ccc2c(c1)N(Cc1ccccc1)C(=O)c1ccccc1S2=O (configuration not stated)", "survival", 70],
  ["Cc1ccc(C)c(NC(=O)CCc2c(C)n(C)c3cc(-c4ccccc4C)nn3c2=O)c1", "survival", 63]
]}
